Measured values drawn from ChEMBL document CHEMBL1155301 for this set.

- testName: Clearance in rat at 2 mg/kg, po and 2 mg/kg, iv
- Type: ADME, organism-based
- protocolConditions: in vivo

structureNotation: CCCOCCn1c(=O)c(NC[C@H](C)O)nc2cnc(-c3ccc(OC)nc3)cc21
clearance (mL/min/kg): 13.8
--
structureNotation: CCCOCCn1c(=O)c(N[C@H](CC)CO)nc2cnc(-c3ccc(OC)nc3)cc21
clearance (mL/min/kg): 22.6
--
structureNotation: CCCOCCn1c(=O)c(NCC(=O)N2CCC(O)CC2)nc2cnc(-c3ccc(OC)nc3)cc21
clearance (mL/min/kg): 10.5
--
structureNotation: CCCOCCn1c(=O)c(NCC(=O)NC)nc2ncc(-c3ccc(OC)nc3)cc21
clearance (mL/min/kg): 19.5
--
structureNotation: CCCOCCn1c(=O)c(NCC(=O)N(C)C)nc2cnc(-c3ccc(OC)nc3)cc21
clearance (mL/min/kg): 27
--
structureNotation: CCCOCCn1c(=O)c(NCc2ccccn2)nc2cnc(-c3ccc(OC)nc3)cc21
clearance (mL/min/kg): 21.9
